# Assay System: T1, Human LRP6-Fc (R&D Systems), recombinant human LRP6 containing the complete extracellular domain (human, UniProt O75581 20-1370)
# T1 construct: Bought protein; also called hLRP6; Fc-antigen; not shown: Fc part of the bought fusion protein
# T1 sequence: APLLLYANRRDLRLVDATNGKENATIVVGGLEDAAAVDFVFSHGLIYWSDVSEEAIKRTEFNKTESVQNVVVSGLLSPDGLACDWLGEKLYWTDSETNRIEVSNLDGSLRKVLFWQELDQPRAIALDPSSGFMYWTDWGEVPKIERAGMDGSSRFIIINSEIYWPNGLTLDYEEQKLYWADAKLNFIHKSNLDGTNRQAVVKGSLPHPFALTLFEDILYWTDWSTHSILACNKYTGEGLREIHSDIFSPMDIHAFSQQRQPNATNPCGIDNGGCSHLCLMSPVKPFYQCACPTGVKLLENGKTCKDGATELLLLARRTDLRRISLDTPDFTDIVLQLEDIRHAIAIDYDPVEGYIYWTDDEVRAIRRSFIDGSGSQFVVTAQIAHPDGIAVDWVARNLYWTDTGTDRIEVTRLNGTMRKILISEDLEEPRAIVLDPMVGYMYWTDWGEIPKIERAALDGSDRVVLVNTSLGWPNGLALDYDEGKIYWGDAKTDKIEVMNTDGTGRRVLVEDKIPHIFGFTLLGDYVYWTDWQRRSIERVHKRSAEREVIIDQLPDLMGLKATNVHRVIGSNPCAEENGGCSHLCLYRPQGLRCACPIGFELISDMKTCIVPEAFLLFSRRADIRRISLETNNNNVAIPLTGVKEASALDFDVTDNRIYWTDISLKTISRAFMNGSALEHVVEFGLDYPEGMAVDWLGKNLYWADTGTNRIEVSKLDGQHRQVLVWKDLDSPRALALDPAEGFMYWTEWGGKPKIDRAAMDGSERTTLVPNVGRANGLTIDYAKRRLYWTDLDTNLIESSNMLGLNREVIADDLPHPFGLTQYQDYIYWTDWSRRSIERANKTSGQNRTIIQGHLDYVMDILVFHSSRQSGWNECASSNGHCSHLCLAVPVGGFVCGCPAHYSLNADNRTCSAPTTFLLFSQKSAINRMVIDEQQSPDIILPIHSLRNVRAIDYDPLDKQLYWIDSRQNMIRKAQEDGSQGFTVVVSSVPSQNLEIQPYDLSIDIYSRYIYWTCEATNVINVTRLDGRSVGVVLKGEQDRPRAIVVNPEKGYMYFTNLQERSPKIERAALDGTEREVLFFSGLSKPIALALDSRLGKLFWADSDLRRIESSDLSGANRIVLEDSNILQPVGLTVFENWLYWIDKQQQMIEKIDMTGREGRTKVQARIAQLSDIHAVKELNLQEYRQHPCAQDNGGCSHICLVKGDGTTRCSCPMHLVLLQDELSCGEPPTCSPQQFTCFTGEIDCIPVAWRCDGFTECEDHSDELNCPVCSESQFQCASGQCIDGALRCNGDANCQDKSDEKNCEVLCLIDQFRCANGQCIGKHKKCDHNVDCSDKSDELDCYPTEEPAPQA
# Assay Comment: SPR (BIAcore), mAb captured on anti-mouse chip, Fc-antigen injected, 1:1 model

Binder	koff
anti-LRP6 monoclonal antibody 498.3 (antibody, V domains shown, Murine hybridoma mAb, protein G purified; also called VH7/VL7) VH: DVKLVESGGGLVRLGGSLKLSCAASGFTFSTYYMSWVRQTPEKRLELVATINTNGGSTYYPDTLKGRFTISRDNAKNTLYLQMSSLRSEDTALYYCARQRNYGVAVDSWGQGTSVTVSS VL: DIVLTQSPATLSVTPGDSVSLSCRASQSISNNLHWYQQKSHESPRLLIKYASQSISGIPSRFSGSGSGTDFTLSINSVETEDFGMYFCQQTNNWPLTFGAGTKLER	5e-05 s⁻¹
anti-LRP6 monoclonal antibody 413.1 (antibody, V domains shown, Murine hybridoma mAb, protein G purified; also called VH5/VL5) VH: EIQLQQSGPELVKPGASVKVSCKASGYAFTSYNMYWVKQSHGKGLEWIGYIDPYNGGTDSNQNFKGKATLTVDKSSSTAFMHLNSLTSEDSAVYYCARGGMGLRRDHFDYWGQGTSLTVSS VL: QIVLTQSPAIMSASPGEKVTISCSANSSVRYMFWYQQKPGSFPKPWTYRTSNLASGVPARFSGSGSGTSYSLTISSMEAEDVATYYCQQYHSYPWTFGGGTKLEI	8.47e-05 s⁻¹
